assay: Population pharmacokinetic analysis (NONMEM), first final model; assay type: in vivo, patients; conditions: human, plasma, other: IV and oral routes fitted simultaneously, first final model; patient with BSA 1.9 m^2; read-out: CL (clearance) (converted)
endpoint: clearance (mL/min)
Kindly provide the numeric value in mL/min only, without the unit symbol.

Exercise: Given the molecule `Cc1[nH]c2ccccc2c1CCNCc1ccc(/C=C/C(=O)NO)cc1` , what is its reported clearance?
Key: 552

* * *

Assay: Population pharmacokinetic analysis (NONMEM), first final model
Type: in vivo, patients
Settings: human, plasma; first final model; oral; read-out: absolute bioavailability
Description: A population PK data set was constructed from 581 patients with advanced hematologic and solid tumors who participated in 14 phase 1 and phase 2 studies of panobinostat (Table 1). […] PK sampling generally occurred from predose through 48 h after each oral dose or predose through 24 h after each IV dose. […] The lower limit of quantification of panobinostat was 0.5 ng/mL for all studies except B2201 and B2203, for which it was 0.1 ng/mL. […]
endpoint: bioavailability (%)
Give the number; % is assumed, so skip it.

Exercise: Would you kindly share the measured bioavailability for Cc1[nH]c2ccccc2c1CCNCc1ccc(/C=C/C(=O)NO)cc1 [panobinostat] ?
Key: 21.4
